# target.of.assay: ScBem1-D1
# protocol.description: SPOT peptide array binding signal intensity (averaged, normalized) (arbitrary units (background-subtracted, floor 0; scale differs between SH3 domains)); higher = stronger binding of the SH3 domain to the peptide
property.label: SPOT peptide array binding signal intensity

Sample answers from the record:
- binder: "NGRRRPKFRVQLSGN"
  result: 166
- binder: "NFLRLLIGLPSQNEL"
  result: 18
- binder: "RRTRLRPPTPLSQLL"
  result: 111

// next entry
Problem: Read the entry HVRRSILALPLGVLL and write its reported SPOT peptide array binding signal intensity.
Result: 10
